Assign class by melting point: not lower than 20 °C means class 1; lower than 20 °C means class 0.

>>> category_label("O=C(O)CCCCC=C(c1ccccc1)c1cccnc1")
"class 1"
>>> category_label("O=S(=O)(Cl)c1ccccc1 [benzenesulfonyl chloride]")
"class 0"
>>> category_label("OCc1cccc(B(O)O)c1 [3-(hydroxymethyl)benzeneboronic acid]")
"class 1"

Check this compound for melting point at or above 20 °C: C=CCO [Prop-2-en-1-ol]
class 0

Check this compound for melting point at or above 20 °C: CCCCCCCCN
class 0

Check this compound for melting point at or above 20 °C: NCc1ccccn1
class 0

Check this compound for melting point at or above 20 °C: COC(=O)c1ccccc1C(=O)OC [Dimethyl phthalate]
class 0

---

Assign class by melting point: not lower than 100 °C means yes; lower than 100 °C means no.

The examples below pair each entry with its known result.
>>> category_label("CC(C)(C)c1ccc(-c2ccc(Br)cc2)cc1")
"yes"
>>> category_label("O=C(N[C@@H](Cc1ccccc1)C(=O)O)OCc1ccccc1")
"no"
>>> category_label("C[C@]12CC[C@H]3[C@@H](CCC4=CC(=O)CC[C@@]43C)[C@@H]1CC[C@@H]2O")
"yes"
>>> category_label("CCCCc1c2c(cc3c1-c1ccccc1OC3)CCCC2=O [12-Butyl-9,10-dihydro-6H-naphtho[2,3-c]chromen-11(8H)-one]")
"no"
>>> category_label("Clc1ccc(Cl)cc1 [1,4-Dichlorobenzene]")
"no"

Check this compound for melting point at or above 100 °C: O=C(S)c1ccccc1
no

Check this compound for melting point at or above 100 °C: CC(C)CCCC(C)C1CCC2C3CC=C4CC(Cl)CCC4(C)C3CCC12C (stereo not given)
no

Check this compound for melting point at or above 100 °C: COC(=O)c1ccc([N+](=O)[O-])cc1 [methyl 4-nitrobenzoate]
no

Check this compound for melting point at or above 100 °C: Cc1cc(O)ccc1Br
no

Check this compound for melting point at or above 100 °C: O=C(CC(=O)c1ccccc1)c1ccccc1
no

Check this compound for melting point at or above 100 °C: NCCO
no

Check this compound for melting point at or above 100 °C: Cc1ccc(C)c(-c2cc(C)ccc2C)c1
no

Check this compound for melting point at or above 100 °C: O=S(F)F [Thionyl difluoride]
no

Check this compound for melting point at or above 100 °C: C[C@]12CCC(=O)C=C1CC[C@@H]1[C@@H]2[C@@H](O)C[C@@]2(C)[C@H]1CC[C@]2(O)C(=O)CO [Hydrocortisone]
yes

Check this compound for melting point at or above 100 °C: O=C(O)CC1Sc2ccccc2NC1=O (stereo not given) [3,4-dihydro-3-oxo-2h-1,4-benzothiazine-2-acetic acid]
yes

---

reported endpoint: melting point (°C)
Give bare numbers, in °C.

// worked examples, melting point included
>>> assay_result("CC(C)NCC(O)c1cc(O)cc(O)c1 (stereo not drawn)")
100
>>> assay_result("CC(=O)Nc1ccc(C(C)C)cc1 [4'-isopropylacetanilide]")
104
>>> assay_result("CN(C)c1ccc([N+](=O)[O-])cc1")
165

Dear colleague, could you please provide melting point for the molecules listed below?
1. Clc1ccc(-c2ccccc2)cc1
2. CSC(SC)=C(C#N)C#N [[Bis(Methylthio)Methylene]Malononitrile]
3. O=Cc1ccc(O)c(O)c1 [3,4-Dihydroxybenzaldehyde]
4. C=CCO [allyl alcohol]
5. O=Cc1ccc(C=O)cc1

[78, 61, 154, -129, 116]

---

Assign class by melting point: not lower than 100 °C means true; lower than 100 °C means false.

The examples below pair each entry with its known result.
>>> category_label("COc1cc(OC)cc(C(C)=O)c1")
"false"
>>> category_label("O=S(=O)([O-])CCN1CC[NH+](CCO)CC1 [2-[4-(2-Hydroxyethyl)piperazin-4-ium-1-yl]ethanesulfonate]")
"true"
>>> category_label("O=C(O)c1ccccc1 [benzoic acid]")
"true"
>>> category_label("Cc1ccc2cc3c(ccc4ccccc43)c3c2c1CC3")
"true"
>>> category_label("O=C(O)c1cc(=O)[nH]c(=O)[nH]1 [orotic acid, anhydrous]")
"true"
>>> category_label("COc1cc(CCC(C)=O)ccc1O [4-(4-hydroxy-3-methoxyphenyl)-2-butanone]")
"false"
>>> category_label("CSc1ccc(Br)cc1")
"false"
>>> category_label("CC(=O)Nc1nnc(S(N)(=O)=O)s1 [Acetazolamide]")
"true"
>>> category_label("O=C(CCCN1CCC(n2c(=O)[nH]c3ccccc32)CC1)c1ccc(F)cc1")
"true"
>>> category_label("CN(C)C(=S)NN [4,4-dimethyl-3-thiosemicarbazide]")
"true"

Check this compound for melting point at or above 100 °C: Nc1cccc(O)c1 [m-aminophenol]
true

Check this compound for melting point at or above 100 °C: COc1cc(C#N)ccc1O [4-hydroxy-3-methoxybenzonitrile]
false

Check this compound for melting point at or above 100 °C: N#CCC(=O)c1cccs1
true

Check this compound for melting point at or above 100 °C: C[C@@H]1O[C@H](OC[C@@H]2O[C@H](Oc3c(-c4ccc(O)c(O)c4)oc4cc(O)cc(O)c4c3=O)[C@@H](O)[C@H](O)[C@H]2O)[C@@H](O)[C@H](O)[C@H]1O
true

Check this compound for melting point at or above 100 °C: OC(C(F)(F)F)C(F)(F)F
false

Check this compound for melting point at or above 100 °C: OCC(CO)(CO)CO
true

---

The threshold is 70 °C. Values of melting point beneath it are tagged Yes; values meeting or exceeding it are tagged No.

The examples below pair each entry with its known result.
>>> category_label("O=Cc1cc(O)ccc1O [2,5-dihydroxybenzaldehyde]")
"No"
>>> category_label("ON=C(c1ccccc1)c1ccccn1")
"No"
>>> category_label("CCC#N [Propiononitrile]")
"Yes"
>>> category_label("CCCCCCCCCCCCCCCCO")
"Yes"
>>> category_label("S=C=NC(c1ccccc1)(c1ccccc1)c1ccccc1 [triphenylmethyl isothiocyanate]")
"No"
>>> category_label("ClCC(CCl)(CCl)CCl [pentaerythrityl tetrachloride]")
"No"

Next:
Problem: For the molecule COCOC [dimethoxymethane] , is melting point under 70 °C?
Yes

---

reported endpoint: melting point (°C)
One number for each entry, in °C.

// worked examples, melting point included
>>> assay_result("Nc1ccc(O)cc1 [p-aminophenol]")
189
>>> assay_result("CC(=O)c1ccc(C#N)cc1 [p-acetyl_benzonitrile]")
59
>>> assay_result("CCOC(=O)Cc1cc(/C(=N/Nc2ccccc2)C(=O)OCC)c([N+](=O)[O-])cc1[N+](=O)[O-]")
155

Dear colleague, could you please provide melting point for the molecules listed below?
1. CCOB(OCC)OCC [triethyl borate]
2. Cc1ccc(N)cc1N
3. CCCCCC(=O)OC [methyl hexanoate]

[-85, 99, -71]

---

The threshold is 70 °C. Values of melting point beneath it are tagged satisfied; values meeting or exceeding it are tagged not satisfied.

The examples below pair each entry with its known result.
>>> category_label("CCCCCCCC(=O)OCC [ethyl octanoate]")
"satisfied"
>>> category_label("COC(=O)c1cccc(C(N)=O)c1 [isophthalic_acid,_methylester_amide]")
"not satisfied"
>>> category_label("ClCc1c2ccccc2cc2ccccc12")
"not satisfied"
>>> category_label("O=Cc1cc2c(cc1[N+](=O)[O-])OCO2")
"not satisfied"
>>> category_label("c1ccc(N2CCNCC2)cc1")
"satisfied"

Problem: For the molecule c1ccc(CCc2ccccc2)cc1 [Bibenzyl] , is melting point under 70 °C?
satisfied

Problem: For the molecule O=[N+]([O-])c1ccc(F)c([N+](=O)[O-])c1 , is melting point under 70 °C?
satisfied

Problem: For the molecule CCOC(=O)c1ccccc1N [ethyl anthranilate] , is melting point under 70 °C?
satisfied

---

reported endpoint: melting point (°C)
Answers are plain numbers, in °C.

// worked examples, melting point included
>>> assay_result("BrC(Br)C(Br)Br [1,1,2,2-tetrabromoethane]")
0
>>> assay_result("CCCCCCCCP(=O)(CCCCCCCC)CCCCCCCC [tri-n-octylphosphine oxide]")
55

Dear colleague, could you please provide melting point for the compounds listed below?
1. CC12CCC(C=C/C1=N\O)C2(C)C (stereo not drawn) [(2E)-N-hydroxy-1,8,8-trimethylbicyclo[3.2.1]oct-3-en-2-imine]
2. OB(O)c1ccc(F)c(F)c1F [2,3,4-trifluorobenzeneboronic acid]

[146, 203]

Dear colleague, could you please provide melting point for the compounds listed below?
1. Cc1cc(Br)ccc1N [4-bromo-2-methylaniline]
2. Nc1ccc([N+](=O)[O-])cc1[N+](=O)[O-] [2,4-dinitroaniline]
3. O=[N+]([O-])c1cccc(F)c1O [2-fluoro-6-nitrophenol]
4. C=C1C(=O)C23C(OC(C)=O)CC4C(C)(C)CCC(OC(C)=O)C4(C)C2C(OC(C)=O)CC1C3OC(C)=O (stereo not drawn) [15-oxokaur-16-ene-1,7,11,14-tetrayl tetraacetate]

[52, 178, 93, 237]
